The measured values listed here are drawn from ChEMBL document CHEMBL1157539.

tested on: HepG2; test: GSK_TCMDC: Percent inhibition of human HepG2 cell line. Test compounds present at 10uM.; format: functional
Recorded Inhibition by entry
Number plus unit, in that order.

Illustrative cases are given below, each with its answer.
- COCCNC(=O)c1ccc(OC2CCN(Cc3ccc(F)c(F)c3)CC2)c(Cl)c1: 8%
- Br.CC1(C)N=C(N)N=C(N)N1OCCc1ccc2ccccc2c1: 65%

Turning to the following compound.
Quick check: Inhibition of N#Cc1ccc(N[C@@H](CC2CCCCC2)C(=O)N[C@@H]2CCCc3ccccc32)c2ccccc12.O=C(O)C(F)(F)F ?
12%

* * *

tested on: Plasmodium falciparum; assay: GSK_TCMDC: Inhibition of Plasmodium falciparum Dd2 in whole red blood cells, using parasite LDH activity as an index of growth. Test compounds present at 2uM; assay type: functional
quantityName: Inhibition (%)
# value in %; strip the unit string

- O=C(NCCN1CCCCC1)c1ccc(Nc2nccc(Nc3ccc(Oc4ccccc4)cc3)n2)cc1: 91

Lookup: Inhibition / Plasmodium falciparum / Nc1nc(N)c2cc(NS(=O)(=O)c3ccc(-c4ccccc4)cc3)ccc2n1
54

Now this one: CC(C)c1ccc(NC(S)=NN=Cc2ccccn2)cc1
98

Now this one: Nc1nc(N)c2c(ccc3c2ccn3Cc2cccc(F)c2)n1
99
